Source listed as ChEMBL document CHEMBL1201862.

Exercise: state measured EC50 for each of the molecules provided.
Molecular target: Voltage-dependent T-type calcium channel subunit alpha-1H (Homo sapiens);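 note: channel activity triggered by adding a high calcium stimulation buffer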
Sequence (O95180 whole entry): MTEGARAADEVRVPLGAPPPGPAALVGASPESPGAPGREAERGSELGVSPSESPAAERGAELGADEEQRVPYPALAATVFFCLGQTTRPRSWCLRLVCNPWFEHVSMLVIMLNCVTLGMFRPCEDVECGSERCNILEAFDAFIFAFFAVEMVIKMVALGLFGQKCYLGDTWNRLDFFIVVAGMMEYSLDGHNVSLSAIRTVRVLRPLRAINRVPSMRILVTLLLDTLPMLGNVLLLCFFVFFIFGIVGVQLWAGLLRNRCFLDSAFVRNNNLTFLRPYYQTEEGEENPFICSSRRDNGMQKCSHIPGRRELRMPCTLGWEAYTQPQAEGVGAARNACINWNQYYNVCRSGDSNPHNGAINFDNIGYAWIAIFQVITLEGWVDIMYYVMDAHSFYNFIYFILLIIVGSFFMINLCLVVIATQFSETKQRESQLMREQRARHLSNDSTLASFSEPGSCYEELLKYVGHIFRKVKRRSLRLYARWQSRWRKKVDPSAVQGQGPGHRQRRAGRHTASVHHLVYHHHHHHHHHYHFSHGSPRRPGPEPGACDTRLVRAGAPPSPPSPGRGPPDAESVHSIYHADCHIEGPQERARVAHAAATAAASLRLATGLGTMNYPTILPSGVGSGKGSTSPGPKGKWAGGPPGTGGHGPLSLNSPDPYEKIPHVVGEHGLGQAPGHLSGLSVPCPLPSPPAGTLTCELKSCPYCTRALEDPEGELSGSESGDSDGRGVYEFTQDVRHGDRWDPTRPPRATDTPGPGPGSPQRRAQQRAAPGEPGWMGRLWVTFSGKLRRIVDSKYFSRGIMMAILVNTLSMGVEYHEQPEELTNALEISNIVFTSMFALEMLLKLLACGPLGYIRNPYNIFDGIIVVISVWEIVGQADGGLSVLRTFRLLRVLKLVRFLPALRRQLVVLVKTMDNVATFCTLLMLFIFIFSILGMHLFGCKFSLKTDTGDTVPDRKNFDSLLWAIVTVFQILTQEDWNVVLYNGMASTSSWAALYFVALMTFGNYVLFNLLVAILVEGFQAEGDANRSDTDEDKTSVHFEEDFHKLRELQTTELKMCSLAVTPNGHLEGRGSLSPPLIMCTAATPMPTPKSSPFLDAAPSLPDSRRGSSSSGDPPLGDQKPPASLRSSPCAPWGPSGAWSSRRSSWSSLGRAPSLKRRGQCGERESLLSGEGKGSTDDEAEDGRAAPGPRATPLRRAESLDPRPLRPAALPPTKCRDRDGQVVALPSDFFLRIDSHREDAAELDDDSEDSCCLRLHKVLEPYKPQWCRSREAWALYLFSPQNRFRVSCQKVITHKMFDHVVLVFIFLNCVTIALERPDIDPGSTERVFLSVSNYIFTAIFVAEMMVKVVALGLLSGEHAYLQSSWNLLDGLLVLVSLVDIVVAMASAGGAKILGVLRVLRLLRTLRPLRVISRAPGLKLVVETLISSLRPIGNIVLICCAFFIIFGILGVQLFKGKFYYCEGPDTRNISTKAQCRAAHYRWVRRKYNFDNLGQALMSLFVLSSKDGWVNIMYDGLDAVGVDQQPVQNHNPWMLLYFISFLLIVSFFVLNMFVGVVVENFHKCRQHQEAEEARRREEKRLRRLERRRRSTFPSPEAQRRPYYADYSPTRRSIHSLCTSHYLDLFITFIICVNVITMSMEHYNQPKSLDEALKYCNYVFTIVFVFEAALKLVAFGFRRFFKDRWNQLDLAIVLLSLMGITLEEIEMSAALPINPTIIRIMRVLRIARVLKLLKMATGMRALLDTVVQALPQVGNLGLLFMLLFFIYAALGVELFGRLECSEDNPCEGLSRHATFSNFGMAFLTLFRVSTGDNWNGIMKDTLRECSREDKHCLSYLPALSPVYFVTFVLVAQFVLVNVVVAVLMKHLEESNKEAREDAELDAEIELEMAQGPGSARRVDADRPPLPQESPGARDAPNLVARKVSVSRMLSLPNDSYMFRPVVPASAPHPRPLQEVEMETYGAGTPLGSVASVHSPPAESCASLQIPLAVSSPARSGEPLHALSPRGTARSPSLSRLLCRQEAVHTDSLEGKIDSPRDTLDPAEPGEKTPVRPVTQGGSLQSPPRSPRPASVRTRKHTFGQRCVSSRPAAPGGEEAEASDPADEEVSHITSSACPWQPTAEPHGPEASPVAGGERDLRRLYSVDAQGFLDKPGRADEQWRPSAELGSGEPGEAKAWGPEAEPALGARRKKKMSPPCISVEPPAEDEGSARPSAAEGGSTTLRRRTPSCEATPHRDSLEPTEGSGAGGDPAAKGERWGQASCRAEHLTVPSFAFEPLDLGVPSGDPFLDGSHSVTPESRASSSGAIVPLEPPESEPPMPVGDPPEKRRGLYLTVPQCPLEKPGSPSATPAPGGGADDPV
Assay type: functional
The source made the active and inactive calls.

Below: 3 molecules and their reported EC50.
| chemical-smiles | EC50 |
| --- | --- |
| CCCn1c(N2CCN(CC(=O)Nc3ccc4c(c3)OCCO4)CC2)nc2ccccc21 | 3.84 µM (active) |
| Cc1cnc(Nc2nc3ccccc3o2)nc1C(=O)Nc1cccc(C(F)(F)F)c1 | 5.15 µM (active) |
| Cc1ccc(-c2nnc(CSc3nnc(COc4ccccc4)n3-c3ccc(C)cc3)o2)cc1 | 4.75 µM (active) |

Switching to the query record.
Query string: # input molecule: Cc1cccc(N2CCN(C(=O)CCCOc3ccccc3)CC2)c1C ; wanted: its EC50
Result string: 5.65 µM (active)

----------
Target: RNA-binding protein pos-1 (Caenorhabditis elegans, UniProt G5EF15)
Sequence (G5EF15 whole entry, the tested form may be a part): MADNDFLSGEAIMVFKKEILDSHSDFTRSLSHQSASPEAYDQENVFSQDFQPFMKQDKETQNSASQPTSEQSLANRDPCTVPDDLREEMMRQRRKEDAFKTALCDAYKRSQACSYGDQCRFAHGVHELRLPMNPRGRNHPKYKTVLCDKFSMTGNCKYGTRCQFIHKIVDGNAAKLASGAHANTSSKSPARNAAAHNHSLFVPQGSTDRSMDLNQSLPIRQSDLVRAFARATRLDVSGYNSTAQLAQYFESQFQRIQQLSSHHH
Assay: disruptors of C. elegans POS-1 RNA interaction – biochemical, fluorescence polarization, dose response (AID 1964);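 note: purified POS-1 fused to maltose binding protein made in E. coli; potency of compounds blocking POS-1 binding to fluorescent RNA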
Activity calls are given as the source filed them.
Exercise: state measured EC50 for each of the compounds provided.

Below: 9 compounds and their reported EC50.
| compound | result |
| --- | --- |
| CCC(C)[C@@H](N)C(=O)N/N=C/c1cccc2nccnc12 (stereo not given in full) | > 300 µM (not active) |
| O=C(C1=C(O)C(=O)N(c2ncccn2)C1c1cccs1)c1ccco1 (stereo not given) | 39.9 µM (active) |
| CC(=O)c1ccc2cccc3c2c1NC(C)=N3 | 9.79 µM (active) |
| CC(=O)c1sc2nc(-c3cccs3)cc(C(F)(F)F)c2c1N | 45.9 µM (active) |
| CC1(OC(=O)c2ccc(Cl)nc2)C(=O)C=C2C=C(c3ccsc3)OC=C2C1=O (stereo not given) | 54.4 µM (active) |
| CC1N(C)c2cccc3cccc(c23)N1C | > 300 µM (not active) |
| N#C/C(=C(/O)c1cc2ccccc2o1)c1nc2ccccc2s1 | > 300 µM (not active) |
| N#CC1=C(N)OC2=C(C(=O)CCC2)C1c1ccc2c(c1)OCO2 (stereo not given) | > 300 µM (not active) |
| Cc1ccc(NC(=O)c2sc3nc4c(c(-c5ccco5)c3c2N)CCC4)cc1 | 2.13 µM (active) |

Switching to the query record.
Query string: # input compound: O=C1c2ccccc2C(=O)c2c1cccc2N(CCO)CCO ; wanted: its EC50
Result string: 19.6 µM (active)

----------
Assay: NIH3T3 cell viability loss – ATP luminescence, mouse fibroblasts, counter-screen, dose response (AID 2010);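 note: cells exposed to compound for about 90 hours before reading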
Type: functional, cell-based
The source made the active and inactive calls.
Exercise: state measured EC50 for each of the molecules provided.

Below: 4 molecules and their reported EC50.
| molecule | EC50 |
| --- | --- |
| COc1ccc(CN2CCN(Cc3nc4ccccc4s3)CC2CCO)c(C)c1C (stereo unspecified) | > 60 µM (inconclusive) |
| O=C(C1=C[C@@H](c2csc3ccccc23)C[C@@H](OCc2ccc(CO)cc2)O1)N1CCN(Cc2ccccc2)CC1 | > 60 µM (not active) |
| CCCCn1c(NC(=O)c2ccccc2)nc2ccccc21 | 11.3 µM (active) |
| CCOC(=O)c1c(NC(=O)c2c(-c3ccccc3)noc2C)sc(C)c1-c1ccccc1 | 12.5 µM (active) |

Field: EC50. Fill in for each record below.
1. O=C(Nc1ccncc1)Nc1cc(Cl)ccc1Cl
2. COc1ccc(OC)c(CN2CCN(C(=O)CCNC(=O)c3ccc(Br)cc3)CC2)c1

Result string:
1. > 30 µM (not active)
2. > 60 µM (not active)
